src = PubChem BioAssay AID463173

test system: Wild type; assay: S. aureus survival, RN4220 and DeltatarO strains – OD600, teichoic acid synthesis inhibitors, primary screen (AID 463173); settings: S. aureus RN4220 wild type/DeltatarO growth, OD600, 18 h, stronger effect = lower value, screened at 18.75 µg/mL (by protocol)
Among all 52,000 compounds or so, about 1,700 (3.3%) were called active. What follows is part of a selection rich in actives, with near analogues and random picks from the rest.
So basically, if survival comes in under 80% it's Criterion met, and if it's 80% or more it's Criterion not met.

{"columns": ["molecule", "target.desc", "assigned.category"],
 "data": [
  ["COc1ccc(NC(=O)C(C)N2Cc3ccccc3C2=O)cc1OC (stereo not given)", "Wild type", "Criterion met"],
  ["CCC(=O)C1=C(c2ccccc2)N(C(=O)CC)n2c(nnc2C2CCCCC2)S1", "Wild type", "Criterion met"],
  ["CCCC(=O)C1=C(c2ccc(C)cc2)N(C(=O)CCC)n2cnnc2S1", "Wild type", "Criterion not met"],
  ["CCC(=O)C1=C(c2ccc(OC)c(OC)c2)N(C(=O)CC)n2c(nnc2-c2ccc(C)cc2)S1", "Wild type", "Criterion met"],
  ["Cc1nc(C)c(-c2csc(NCc3ccccc3)n2)s1", "Wild type", "Criterion not met"],
  ["CCC(=O)C1=C(c2ccccc2)N(C(=O)CC)n2c(nnc2-c2ccccc2)S1", "Wild type", "Criterion met"],
  ["CC(=O)C1=C(c2cccc([N+](=O)[O-])c2)N(C(C)=O)n2c(nnc2-c2ccc(C)cc2)S1", "Wild type", "Criterion not met"],
  ["CCC(=O)C1=C(c2ccc(F)cc2)N(C(=O)CC)n2c(nnc2-c2ccc(OC)cc2)S1", "Wild type", "Criterion met"],
  ["CCC(=O)C1=C(c2ccc(F)cc2)N(C(=O)CC)n2cnnc2S1", "Wild type", "Criterion not met"]
]}

---

system: Wild type; experiment: S. aureus survival, RN4220 and DeltatarO strains – OD600, teichoic acid synthesis inhibitors, primary screen (AID 463173); conditions: S. aureus RN4220 wild type/DeltatarO growth, OD600, 18 h, stronger effect = lower value, screened at 18.75 µg/mL (by protocol)
About 1,700 (3.3%) of roughly 52,000 compounds were called active. Only a selection was taken, and actives are over-represented in it overall.

{"columns": ["compound", "survival [%]"],
 "data": [
  ["CCCSc1ncnc2c1c(-c1ccccc1)cn2-c1ccccc1OC", 1],
  ["CCOC(=O)CSc1ncnc2c1c(-c1ccccc1)cn2-c1ccc(OC)cc1", 75],
  ["COc1cccc(NC(c2nnc(-c3ccccc3)o2)c2ccc(F)cc2Cl)c1 (configuration not stated)", 56],
  ["CCOc1ccccc1CNC(=O)CN1C(=O)c2cccnc2Oc2ccc(C)cc21", 136],
  ["O=C(Nc1ccccc1C(=O)OCc1cc(=O)n2c3c(sc2n1)CCCC3)c1ccc(Cl)cc1", -3],
  ["COC(=O)c1c(NC(=O)COc2ccc(Cl)cc2C)sc2c1CCCCC2", 83],
  ["COC(=O)c1c(NC(=O)COc2ccc(OC)cc2)sc2c1CCC(C)C2 (configuration not stated)", 86],
  ["Cc1csc2nc(COC(=O)c3cccc(NC(=O)COc4ccc(Cl)cc4)c3)cc(=O)n12", 78],
  ["CCOc1ccc(-c2nnc(SCC(=O)c3ccc(Br)cc3)n2-c2ccccc2)cc1", 92],
  ["COc1ccc(-c2[nH]ncc2C(=O)NCc2cccc(F)c2)cc1", 78],
  ["COc1ccc(OC)c(NC(=O)c2cc3c(=O)oc4ccccc4c3s2)c1", 103],
  ["Cc1ccc(-c2nonc2NC(=O)c2ccco2)cc1C", 79],
  ["CCCCNC(=O)c1nn(-c2ccc(C)cc2)c(=O)c2c1c1ccccc1n2C", 79],
  ["CCCCSc1ncnc2c1c(-c1ccccc1)cn2-c1cccc(F)c1", 84],
  ["O=C(Nc1ccccc1C(=O)OCc1cc(=O)n2c3c(sc2n1)CCCC3)c1cccc(Cl)c1", 73],
  ["COCCn1c(C)cc(O)c(C(c2ccccc2)N2CCN(CCO)CC2)c1=O (configuration not stated)", 0],
  ["COC(=O)c1c(NC(=O)CCCOc2cccc(C)c2)sc2c1CCC(C)C2 (configuration not stated)", 4],
  ["Cc1ccc(C)c(N2CCN(S(=O)(=O)c3ccc4[nH]c5c(c4c3)CCCC5)CC2)c1", -4],
  ["Fc1ccc(-c2ccc(NCc3ccccc3)nn2)cc1", 119],
  ["COc1ccc(Br)cc1S(=O)(=O)Nc1cc(-c2cn3ccccc3n2)ccc1C", 63],
  ["COc1ccc(C)cc1NC(c1nnc(-c2ccccc2)o1)c1ccc(F)cc1Cl (configuration not stated)", 3],
  ["O=C(CSc1nc2c(c(=O)[nH]1)CN(Cc1ccc3c(c1)OCO3)CC2)Nc1ccccc1Cl", 81],
  ["CN1CCN(C(CNC(=O)c2ccc(F)cc2)c2ccc3c(c2)OCO3)CC1 (configuration not stated)", 70],
  ["Cc1ccc(C)c(N2CCN(S(=O)(=O)c3ccc4[nH]c5c(c4c3)CCCCC5)CC2)c1", 89],
  ["COC(=O)c1c(NC(=O)COc2cc(C)ccc2C(C)C)sc2c1CCC(C)C2 (configuration not stated)", 66],
  ["O=C(Nc1ccccc1C(=O)OCc1cc(=O)n2c3c(sc2n1)CCCC3)c1ccccc1", 94],
  ["Cc1ccc(OCC(=O)Nc2cccc(C(=O)OCc3cc(=O)n4c(C)csc4n3)c2)cc1", 69],
  ["CC1(C)CC(=O)c2cc(C(=O)Nc3ccc(Cl)cc3)c(=O)[nH]c2C1", 71],
  ["Cc1ccc(NC(=O)C2CC(=O)n3cnnc3N2)cc1Cl (configuration not stated)", 105],
  ["COc1cc(OC)c(NC(c2nnc(-c3ccccc3)o2)c2ccc(F)cc2Cl)cc1Cl (configuration not stated)", 66],
  ["CC(C)(C)OC(=O)N1CCC2(CC1)C(C#N)=C(N)OC1=C2C(=O)CCC1", 104],
  ["COc1ccccc1CN1C(=O)C(=O)c2cccc(C)c21", 107],
  ["O=C(CC12CC3CC(CC(C3)C1)C2)N1CCCOC1", 114],
  ["Cc1ccc(Cl)cc1NC(=O)c1ccc(-c2nc(CSc3ccccc3)c(C)o2)cc1", 55],
  ["Cc1ccc2[nH]c(CSc3nnc(NC(=O)c4ccc(Cl)cc4)s3)cc(=O)c2c1", 71],
  ["CCOC(=O)c1c(NC(=O)COc2cccc(C(F)(F)F)c2)sc2c1CCC(C)C2 (configuration not stated)", 74],
  ["Cc1cccc(OCCCC(=O)Nc2sc3c(c2C(N)=O)CCC(C)C3)c1 (configuration not stated)", 88],
  ["COCCn1c(C)cc(O)c(C(c2ccccc2)N2CCN(C)CC2)c1=O (configuration not stated)", 87],
  ["Cc1cccc(OCc2cc(=O)n3c4c(sc3n2)CCCC4)c1C", 128],
  ["CCN1CCN(C(c2ccccc2)c2c(O)cc(C)n(CCOC)c2=O)CC1 (configuration not stated)", 91],
  ["Cc1ccc(N(C)C(=O)c2noc3c2CCCCC3)cc1C", 73],
  ["COC(=O)c1c(NC(=O)CCCOc2ccccc2C)sc2c1CCC2", 4]
]}

---

compounds and their reported survival
tested on: Wild type; experiment: S. aureus survival, RN4220 and DeltatarO strains – OD600, teichoic acid synthesis inhibitors, primary screen (AID 463173); conditions: S. aureus RN4220 wild type/DeltatarO growth, OD600, 18 h, stronger effect = lower value, screened at 18.75 µg/mL (by protocol)
In all, about 52,000 compounds went through this assay and about 1,700 (3.3%) were called active. Only a selection was taken, and actives are over-represented in it overall.

{"columns": ["compound", "measurement.units", "survival"],
 "data": [
  ["COc1ccc(C(=O)c2c(N)c(C(=O)Nc3cccc(OC)c3)c3ccccn23)cc1", "%", 95],
  ["Cc1nc2sc(C(=O)Nc3ccc(F)cc3)c(N)c2c(-c2ccc(Br)cc2)c1C(=O)Nc1ccc(Cl)cc1", "%", 88],
  ["Cc1cc2n(n1)C(c1cc(C(C)(C)C)c(O)cc1O)Nc1ccccc1-2 (configuration not stated)", "%", 115],
  ["Cc1ccc(CNC(=O)CSc2c3c(nc4ccc(Cl)cc24)CCCC3)cc1", "%", 80],
  ["CC(C)c1ccc(Cn2c(COc3ccccc3)nc3ccccc32)cc1", "%", -1],
  ["Cc1cc2n(n1)C(c1ccccc1)Nc1ccccc1-2 (configuration not stated)", "%", 123],
  ["CCN(CC)c1ccc(C2Nc3ccccc3-c3cc(C)nn32)cc1 (configuration not stated)", "%", -1],
  ["COC(=O)c1ccc(C2Nc3c(C)cccc3-c3cc(C)nn32)cc1 (configuration not stated)", "%", -4],
  ["CN(Cc1ccccc1)C(=O)CSc1c2c(nc3ccc(Cl)cc13)CCCC2", "%", 0],
  ["CCCNC(=O)CSc1c2c(nc3ccc(Cl)cc13)CCCC2", "%", 72],
  ["Cc1ccc(Cn2c(CNC(=O)c3cccc(C)c3)nc3ccccc32)cc1", "%", 107],
  ["CCCN(CCC)C(=O)CSc1c2c(nc3ccc(Cl)cc13)CCCC2", "%", 52],
  ["COc1ccc(CNC(=O)CSc2c3c(nc4ccc(Cl)cc24)CCCC3)cc1", "%", 76],
  ["COc1ccc(NC(=O)CSc2c3c(nc4ccc(Cl)cc24)CCCC3)cc1Cl", "%", 75],
  ["CCOc1cccc(C2Nc3ccccc3-c3cc(C)nn32)c1O (configuration not stated)", "%", 145],
  ["CCCCNC(=O)CSc1c2c(nc3ccc(Cl)cc13)CCCC2", "%", 66],
  ["Cc1cccc(Cn2c(COc3ccccc3)nc3ccccc32)c1", "%", -11],
  ["COc1cc(OC)c(N(C)C(=O)CSc2c3c(nc4ccc(Cl)cc24)CCCC3)cc1Cl", "%", 2],
  ["CCCCN(C)C(=O)CSc1c2c(nc3ccc(Cl)cc13)CCCC2", "%", -2],
  ["CCc1ccc(CNC(=O)CSc2c3c(nc4ccc(Cl)cc24)CCCC3)cc1", "%", 76],
  ["Cc1ccc2c(c1)-c1cc(C)nn1C(c1cc(Br)ccc1O)N2 (configuration not stated)", "%", 131],
  ["CCCCN(CC)C(=O)CSc1c2c(nc3ccc(Cl)cc13)CCCC2", "%", -2]
]}
